The reader will find reported Papp values listed item by item below.
assay.text: in vitro
particulars: human, Caco-2, Caco-2 (cm/sec)
*1 amine or outer side, *2 acyl side, *3 side chain or, on linkers, in order; H or OH if unused. Where a SMILES comes first, the peptide text is derived from it. Bridges are numbered along the chain shown (N, C = ends). [ ]: non-standard residue; d: D form. The star is where a group is joined. dhPhe(4-CONHMe,3-OMe) = CNC(=O)c1ccc(CC[C@@H](N)C(=O)O)cc1OC; NMePhe(3-Cl) = CN[C@@H](Cc1cccc(Cl)c1)C(=O)O; NMeF = CN[C@@H](Cc1ccccc1)C(=O)O; NMeGABA = CN(CCCC(=O)[*:2])[*:1]; NMeL = CN[C@@H](CC(C)C)C(=O)O; Piperidide = C1CCN(*)CC1; Propyl(3-OH) = OCCC*; tBu = CC(C)(C)*
Provide the reading as a plain figure in ×10⁻⁶ cm/s.

CC[C@H](C)[C@@H]1NC(=O)[C@H](CC(C)C)N(C)C(=O)CCCN(C)C(=O)C[C@@H](C(=O)N2CCCCC2)NC(=O)[C@H](CC(C)C)N(C)C(=O)[C@H](CC(C)C)N(C)C(=O)[C@H]([C@@H](C)O)NC(=O)[C@H](CC(C)C)N(C)C(=O)[C@H](COCCCO)NC(=O)[C@H](Cc2cccc(Cl)c2)N(C)C(=O)[C@H](Cc2ccccc2)N(C)C1=O [AP92] ([NMeGABA][NMeL]I[NMeF][NMePhe(3-Cl)]S(Propyl(3-OH))[NMeL]T[NMeL][NMeL]D-Piperidide; lactam N-11) | 0.18

Name the reported Papp value associated with the compound CNC(=O)c1ccc(CC[C@H]2NC(=O)[C@H](CC(C)C)N(C)C(=O)CCCN(C)C(=O)C[C@@H](C(=O)N3CCCCC3)NC(=O)[C@H](CC(C)C)N(C)C(=O)[C@H](CC(C)C)N(C)C(=O)[C@H]([C@@H](C)O)NC(=O)[C@H](CC(C)C)N(C)C(=O)[C@H](COC(C)(C)C)NC(=O)[C@H](Cc3ccccc3)N(C)C(=O)[C@H](CC(C)C)N(C)C2=O)cc1OC [AP211] ([NMeGABA][NMeL][dhPhe(4-CONHMe,3-OMe)][NMeL][NMeF]S(tBu)[NMeL]T[NMeL][NMeL]D-Piperidide; lactam N-11)
0.36

* * *

assay.text: in vitro
particulars: human, Caco-2, Caco-2 (cm/sec)
*1 amine or outer side, *2 acyl side, *3 side chain or, on linkers, in order; H or OH if unused. Where a SMILES comes first, the peptide text is derived from it. Bridges are numbered along the chain shown (N, C = ends). [ ]: non-standard residue; d: D form. The star is where a group is joined. dhPhe(4-CONHMe,3-OMe) = CNC(=O)c1ccc(CC[C@@H](N)C(=O)O)cc1OC; X1 = COc1cc(C[C@H](N[*:1])C(=O)[*:2])ccc1C(=O)NO; Tyr(3-OMe) = COc1cc(C[C@H](N)C(=O)O)ccc1O; NMeF = CN[C@@H](Cc1ccccc1)C(=O)O; NMeI = CC[C@H](C)[C@H](NC)C(=O)O; 3Pal = N[C@@H](Cc1cccnc1)C(=O)O; NMeL = CN[C@@H](CC(C)C)C(=O)O; NMeV = CN[C@H](C(=O)O)C(C)C; NMeAbu = CC[C@H](NC)C(=O)O; NMeA = CN[C@@H](C)C(=O)O; Piperidide = C1CCN(*)CC1; NBuGly = CCCCNCC(=O)O; Sar = CNCC(=O)O; tBu = CC(C)(C)*
So basically: Papp at 1 ×10⁻⁶ cm/s or higher? That is 1 (yes). Lower than 1 ×10⁻⁶ cm/s? That is 0 (no).

As a guide, the following entries are already answered.
CC(C)C[C@@H]1NC(=O)[C@H](Cc2ccccc2)N(C)C(=O)[C@H](C)N(C)C(=O)C[C@@H](C(=O)N2CCCCC2)NC(=O)[C@H](C(C)C)N(C)C(=O)[C@H](Cc2ccccc2)N(C)C(=O)[C@H](COC(C)(C)C)NC(=O)[C@H](CC(C)C)N(C)C(=O)CN(C)C(=O)[C@H](Cc2cccnc2)NC(=O)[C@H](CC(C)C)N(C)C1=O [pd197] ([NMeA][NMeF]L[NMeL][3Pal][Sar][NMeL]S(tBu)[NMeF][NMeV]D-Piperidide; lactam N-11) | 1 (yes)
CC(C)C[C@@H]1NC(=O)[C@H](Cc2ccccc2)N(C)C(=O)[C@H](C)NC(=O)C[C@@H](C(=O)N2CCCCC2)NC(=O)[C@H](Cc2ccccc2)N(C)C(=O)[C@H](Cc2ccccc2)N(C)C(=O)[C@H](COC(C)(C)C)NC(=O)[C@H](CC(C)C)N(C)C(=O)CN(C)C(=O)[C@H]([C@@H](C)O)NC(=O)[C@H](CC(C)C)N(C)C1=O [pd217] (A[NMeF]L[NMeL]T[Sar][NMeL]S(tBu)[NMeF][NMeF]D-Piperidide; lactam N-11) | 1 (yes)

Item CCCCN1CC(=O)N(C)[C@@H](CC(C)C)C(=O)N[C@@H](COC(C)(C)C)C(=O)N(C)[C@@H]([C@@H](C)CC)C(=O)N(C)[C@@H](CC(C)C)C(=O)N[C@H](C(=O)N2CCCCC2)CC(=O)N[C@H](C)C(=O)N(C)[C@@H](Cc2ccccc2)C(=O)N[C@@H](Cc2ccc(C(=O)NO)c(OC)c2)C(=O)N(C)[C@@H](CC(C)C)C(=O)N[C@@H]([C@@H](C)O)C1=O [AP258] ([dA][NMeF][X1][NMeL]T[NBuGly][NMeL]S(tBu)[NMeI][NMeL]D-Piperidide; lactam N-11) with Papp of 1 ×10⁻⁶ cm/s or above?
0 (no)

And for CCCCN1CC(=O)N(C)[C@@H](CC(C)C)C(=O)N[C@@H](COC(C)(C)C)C(=O)N(C)[C@@H](CC(C)C)C(=O)N(C)[C@@H](CC)C(=O)N[C@H](C(=O)N2CCCCC2)CC(=O)N[C@H](CC(C)C)C(=O)N(C)[C@@H](Cc2ccccc2)C(=O)N[C@@H](Cc2ccc(O)c(OC)c2)C(=O)N(C)[C@@H](CC(C)C)C(=O)N[C@@H]([C@@H](C)O)C1=O [Compound E02] ([dL][NMeF][Tyr(3-OMe)][NMeL]T[NBuGly][NMeL]S(tBu)[NMeL][NMeAbu]D-Piperidide; lactam N-11) ?
0 (no)

Thanks! And CC[C@H]1C(=O)N[C@H](CCc2ccc(C(=O)NC)c(OC)c2)C(=O)N(C)[C@@H](CC(C)C)C(=O)N(C)[C@@H](CC(C)C)C(=O)N[C@@H](C(C)C)C(=O)N(C)[C@@H](Cc2ccccc2)C(=O)N(C)[C@@H](CC(C)C)C(=O)N[C@@H]([C@@H](C)O)C(=O)N(C)CC(=O)N(C)[C@@H](CC(C)C)C(=O)N[C@H](C(=O)N2CCCCC2)CC(=O)N1C [AP213] ([NMeAbu][dhPhe(4-CONHMe,3-OMe)][NMeL][NMeL]V[NMeF][NMeL]T[Sar][NMeL]D-Piperidide; lactam N-11) ?
0 (no)

* * *

assay.text: in vitro
particulars: human, Caco-2, Caco-2 (cm/sec)
Where a SMILES comes first, the peptide text is derived from it. Bridges are numbered along the chain shown (N, C = ends). [ ]: non-standard residue; d: D form. The star is where a group is joined. Tyr(3-OMe) = COc1cc(C[C@H](N)C(=O)O)ccc1O; NMeF = CN[C@@H](Cc1ccccc1)C(=O)O; NMeL = CN[C@@H](CC(C)C)C(=O)O; Piperidide = C1CCN(*)CC1; NBuGly = CCCCNCC(=O)O; Sar = CNCC(=O)O
attribute.measured: Papp (×10⁻⁶ cm/s)
Numbers only here, please. The scale is ×10⁻⁶ cm/s.

Which Papp is reported for this molecule? CCCCN1CC(=O)N(C)[C@@H](Cc2ccccc2)C(=O)N(C)[C@@H](CC(C)C)C(=O)N[C@@H](Cc2ccc(O)c(OC)c2)C(=O)N(C)[C@@H](CC(C)C)C(=O)N[C@H](C(=O)N2CCCCC2)CC(=O)N(C)CC(=O)N(C)[C@@H](CC(C)C)C(=O)N[C@@H]([C@@H](C)CC)C(=O)N(C)[C@@H](CC(C)C)C(=O)N[C@@H]([C@@H](C)O)C1=O [Compound E08] ([Sar][NMeL]I[NMeL]T[NBuGly][NMeF][NMeL][Tyr(3-OMe)][NMeL]D-Piperidide; lactam N-11)
0.12

* * *

assay.text: in vitro
particulars: human, Caco-2, Caco-2 (cm/sec)
Where a SMILES comes first, the peptide text is derived from it. Bridges are numbered along the chain shown (N, C = ends). [ ]: non-standard residue; d: D form. The star is where a group is joined. NMeW = CN[C@@H](Cc1c[nH]c2ccccc12)C(=O)O; NMeF = CN[C@@H](Cc1ccccc1)C(=O)O; NMeL = CN[C@@H](CC(C)C)C(=O)O; NMeAbu = CC[C@H](NC)C(=O)O; NMeA = CN[C@@H](C)C(=O)O; Piperidide = C1CCN(*)CC1; X8 = C1COC[C@@H](C*)N1; NBuGly = CCCCNCC(=O)O; Sar = CNCC(=O)O
attribute.measured: Papp
Answer with the value and then the unit.

CCCCN1CC(=O)N(C)[C@@H](Cc2ccccc2)C(=O)N(C)[C@@H](CC(C)C)C(=O)N[C@@H](CC(C)C)C(=O)N(C)[C@@H](CC(C)C)C(=O)N[C@H](C(=O)N2CCCCC2)CC(=O)N(C)CC(=O)N(C)[C@@H](CC)C(=O)N[C@@H](C(C)C)C(=O)N(C)[C@@H](CC)C(=O)N[C@@H](COC[C@@H]2COCCN2)C1=O [AP247] ([Sar][NMeAbu]V[NMeAbu]S(X8)[NBuGly][NMeF][NMeL]L[NMeL]D-Piperidide; lactam N-11) | 0.69 ×10⁻⁶ cm/s

Moving on to the next molecule.
# query: Papp of entry CC(C)C[C@H]1C(=O)N(C)[C@@H](Cc2c[nH]c3ccccc23)C(=O)N(C)[C@@H](Cc2ccccc2)C(=O)N[C@@H]([C@@H](C)O)C(=O)N(C)[C@@H](C)C(=O)N(C)[C@@H](CC(C)C)C(=O)N[C@H](C(=O)N2CCCCC2)CC(=O)N(C)[C@@H](C)C(=O)N(C)[C@@H](CC(C)C)C(=O)N(C)[C@@H](CC(C)C)C(=O)N[C@@H](C(C)C)C(=O)N1C [pd109] ([NMeA][NMeL][NMeL]V[NMeL][NMeW][NMeF]T[NMeA][NMeL]D-Piperidide; lactam N-11)
0.0092 ×10⁻⁶ cm/s
